EXPERIMENTAL DETAILS: Bioavailability / plasma pharmacokinetics
Assay type: in vivo
CONDITION INFO: rat, po, p.o. 10 mg/kg, male SD rats
MEASUREMENT TYPE: half-life

Specify reported half-life for the molecule shown: CNC(=O)[C@@]12C[C@@H]1[C@@H](n1cnc3c(NC)nc(C#Cc4ccc(Cl)s4)nc31)[C@H](O)[C@@H]2O 7.8 h

* * *

MEASURED TARGET: hH4 histamine receptor (Homo sapiens (Human), UniProt Q9H3N8)
Sequence (Q9H3N8 whole entry): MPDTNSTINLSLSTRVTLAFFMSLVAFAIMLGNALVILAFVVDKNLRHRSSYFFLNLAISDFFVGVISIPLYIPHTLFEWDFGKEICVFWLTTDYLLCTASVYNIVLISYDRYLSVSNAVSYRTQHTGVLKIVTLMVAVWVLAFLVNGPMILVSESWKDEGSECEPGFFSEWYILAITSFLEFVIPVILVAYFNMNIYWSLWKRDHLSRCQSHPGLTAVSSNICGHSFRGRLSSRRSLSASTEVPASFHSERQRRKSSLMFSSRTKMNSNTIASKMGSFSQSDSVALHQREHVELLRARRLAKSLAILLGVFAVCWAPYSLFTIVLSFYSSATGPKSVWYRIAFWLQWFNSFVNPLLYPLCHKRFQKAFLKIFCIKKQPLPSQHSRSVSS
EXPERIMENTAL DETAILS: Off-target binding, H4
CONDITION INFO: read-out: Ki at H4
MEASUREMENT TYPE: Ki
Please don't drop the unit; write it after the number.

Specify reported Ki for the molecule shown: CNC(=O)C12CC1C(n1cnc3c(NCc4cccc(Cl)c4)nc(C#Cc4ccc(F)c(F)c4)nc31)C(O)C2O (single isomer, unassigned) 9.4 µM
